# SYSTEM_UNDER_TEST: UniProt P35414
# ASSAY_INFO: biochemical
# RUN_CONDITIONS: [35S]GTPγS binding, CHO membranes expressing human APJ receptor; read-out: Activity hAPJ SPA EC50 IP
EXPERIMENTAL_READOUT: EC50
Show the value, then the unit it is measured in.

The molecule COCC1(n2c(NS(=O)(=O)[C@@H](C)[C@H](OC)c3ncc(Cl)cn3)nnc2-c2nn(C)c3c2CCCC3)CC1 [Example 513.0] showed EC50 equal to 3.1 nM

// recorded EC50 for Cn1ccc(-c2nnc(NS(=O)(=O)[C@@H]3C[C@@H](O)CN(c4ncc(F)cn4)C3)n2-c2c(F)cccc2F)n1 (single isomer, unassigned) [Example 300.0] : 55 nM

Field EC50 (entry COc1cccc(OC)c1-n1c(NS(=O)(=O)C[C@H](OC)c2ccc(Cl)cn2)nnc1-c1ccn(C)n1 (single isomer, unassigned) [Example 376.0] ) reads 1.7 nM

* * *

Give measured EC50 for each item. Keep answers brief.
# SYSTEM_UNDER_TEST: human APJ receptor (Homo sapiens (Human), UniProt P35414)
# Sequence (P35414 whole entry): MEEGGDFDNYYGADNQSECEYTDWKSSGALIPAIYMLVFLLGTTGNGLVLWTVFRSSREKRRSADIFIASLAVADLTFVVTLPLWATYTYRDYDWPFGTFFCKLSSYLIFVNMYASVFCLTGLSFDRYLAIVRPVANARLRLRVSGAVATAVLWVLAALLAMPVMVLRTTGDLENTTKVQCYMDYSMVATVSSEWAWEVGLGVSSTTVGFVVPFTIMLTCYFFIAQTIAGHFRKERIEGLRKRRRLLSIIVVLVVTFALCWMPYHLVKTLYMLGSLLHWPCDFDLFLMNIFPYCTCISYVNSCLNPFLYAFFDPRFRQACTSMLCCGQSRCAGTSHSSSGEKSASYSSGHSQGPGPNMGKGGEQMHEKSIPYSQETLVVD
# ASSAY_INFO: biochemical
# Format: biochemical
# RUN_CONDITIONS: [35S]GTPγS binding, CHO membranes expressing human APJ receptor; read-out: Activity hAPJ SPA EC50 IP
# Protocol: The human APJ receptor was cloned by polymerase chain reaction and the gene encoding the receptor was subcloned in pFLAG-CMV™-3 expression vector (Sigma, Saint Louis, Mo. USA) in-house at Amgen. […] The optimum experimental conditions for the concentrations of GDP, MgCl2, and NaCl in the assay buffer were initially determined. […] Incubation was at RT for 90 min and the microplate was read using a ViewLux™ ultra HTS Microplate Imager (PerkinElmer, Inc.).
Write the number in nM without appending the unit.

Notebook: `CCn1ccc(-c2nnc(NS(=O)(=O)[C@@H](C)[C@@](O)(c3ncc(C)cn3)C(F)(F)F)n2-c2c(OC)cccc2OC)n1` , EC50 read as 73

`COc1cnc([C@@H](C)[C@H](C)S(=O)(=O)Nc2nnc(-c3ccn(C)n3)n2-c2c(F)cccc2F)cn1` has a reported EC50 of 25

Kindly note the recorded EC50 for `COc1cnc([C@@H](C)[C@H](C)S(=O)(=O)Nc2nnc(-c3ccn(C)n3)n2-c2c(OC)cccc2OC)cn1` , which is 0.42

Short answer for `COC[C@H](C)n1c(NS(=O)(=O)[C@@H](C)[C@H](C)c2ncc(Cl)cn2)nnc1-c1ccn(C)n1` : EC50 was 110

Value of EC50 reported for the compound COc1cccc(OC)c1-n1c(NS(=O)(=O)C[C@H](O)c2ccc(F)cc2S(C)(=O)=O)nnc1-c1ccn(C)n1 (single isomer, unassigned) [Example 371.0] is 2.2

Lab note: measured EC50 of COc1cccc(OC)c1-n1c(NS(=O)(=O)[C@@H](C)[C@H](OC)c2ccc(C#N)cc2C#N)nnc1-c1ccn(C)n1 (mixture of isomers) was 0.8

* * *

# SYSTEM_UNDER_TEST: human APJ receptor (Homo sapiens (Human))
# ASSAY_INFO: biochemical
# RUN_CONDITIONS: [35S]GTPγS binding, CHO membranes expressing human APJ receptor; read-out: Activity hAPJ SPA EC50 IP
EXPERIMENTAL_READOUT: log10(EC50) (log10 of the value in nM)
Values reflect log10 of reported EC50 (nM).

The value of log10(EC50) measured for the compound COc1cccc(OC)c1-n1c(NS(=O)(=O)[C@H](C)Cc2ncc(F)cn2)nnc1-c1cc(C)no1 (single isomer, unassigned) turned out to be 1.93

The measured log10(EC50) associated with `COc1cccc(OC)c1-n1c(NS(=O)(=O)[C@@H](C)[C@H](OC)c2ncc(C)cn2)nnc1-c1cc(C2CC2)on1` reads 1.32

// recorded log10(EC50) for `CC(C)O[C@@H](c1ncc(Cl)cn1)[C@H](C)S(=O)(=O)Nc1nnc(-c2cnn(C)c2)n1C1CC1` : 1.85

log10(EC50) measured on `O=S(=O)(CCc1ccc(Cl)cc1)Nc1nnc(-c2cccs2)n1-c1ccccc1OC(F)F` = 3.12

GET /value?item= COc1cnc([C@@H](OC)[C@H](C)S(=O)(=O)Nc2nnc(-c3ccn(C)n3)n2-c2c(OC)cccc2OC)cn1 (single isomer, unassigned) [Example 308.0] &field=log10(EC50) returns -0.24

Sample `CC(C)O[C@@H](c1ncc(Cl)cn1)[C@H](C)S(=O)(=O)Nc1nnc(-c2ccn(C)n2)n1C1(C)CC1` ; log10(EC50) observed: 1.30

compound COc1cccc(OC)c1-n1c(NS(=O)(=O)[C@H](C)Cc2ncc(F)cn2)nnc1-c1conc1C (single isomer, unassigned) , log10(EC50) observed: 1.88

Measured log10(EC50), `COc1cccc(OC)c1-n1c(NS(=O)(=O)[C@@H](C)[C@H](OC)c2ncc(C)cn2)nnc1-c1n[nH]c2ccc(Cl)cc12` : 2.15

The measured log10(EC50) associated with `COCC1(n2c(NS(=O)(=O)[C@@H](C)[C@H](OC)c3ncc(Cl)cn3)nnc2-c2n[nH]c3ccc(C)cc23)CC1` reads 1.63

Memo: `CO[C@H](c1ncc(Cl)cn1)[C@H](C)S(=O)(=O)Nc1nnc(-c2cnn3ccccc23)n1C1CC1` , reported log10(EC50): 1.58

Entry under test: `COc1cccc(OC)c1-n1c(NS(=O)(=O)[C@@H](C)[C@H](C)c2ncc(C)cn2)nnc1-c1cnn(C)c1` . Its log10(EC50) was -0.38

The recorded log10(EC50) for entry `COc1cccc(OC)c1-n1c(NS(=O)(=O)[C@@H](C)[C@H](C)c2ncc(F)cn2)nnc1-c1cnn2c1CCC2` equals -0.25

response.value for `CO[C@H](c1ncc(Cl)cn1)[C@H](C)S(=O)(=O)Nc1nnc(-c2ccn(C)n2)n1-c1c(F)cccc1F` (field: log10(EC50)) = 0.49

response.value for COc1cccc(OC)c1-n1c(NS(=O)(=O)[C@@H](C)Cc2ncc(F)cn2)nnc1-c1cccnn1 (single isomer, unassigned) [Example 32.0] (field: log10(EC50)) = 1.23

Reported log10(EC50) ( `COc1ccc(Br)cc1-n1c(NS(=O)(=O)CCc2ccc(Cl)cc2)nnc1-c1cccs1` ) = 2.56

// recorded log10(EC50) for COc1cccc(OC)c1-n1c(NS(=O)(=O)[C@H](C)[C@H](O)c2ncc(C)cn2)nnc1-c1nc(C)cs1 (single isomer, unassigned) [Example 315.0] : -0.17

Per the record, `COc1cccc(OC)c1-n1c(NS(=O)(=O)[C@@H](C)[C@H](OC)c2ncc(C)cn2)nnc1-c1n[nH]c2ccccc12` has log10(EC50) of 1.76

Consider `CO[C@H](c1ncc(Cl)cn1)[C@H](C)S(=O)(=O)Nc1nnc(-c2nn(C)c3c2CCCC3)n1C1CC1` . Its measured log10(EC50) is 1.28

log10(EC50) measured on COCC[C@@H]([C@H](C)c1ncc(F)cn1)S(=O)(=O)Nc1nnc(-c2nc(C)cs2)n1-c1c(OC)cccc1OC (single isomer, unassigned) [Example 19.0] = 0.80

Cn1ccc(-c2nnc(NS(=O)(=O)[C@@H]3C[C@H](O)CN(c4ncc(F)cn4)C3)n2-c2c(F)cccc2F)n1 (single isomer, unassigned) yielded log10(EC50) of 2.72

log10(EC50) measured on `COc1cccc(OC)c1-n1c(NS(=O)(=O)[C@@H](C)[C@H](OC)c2ncc(C)cn2)nnc1-c1ncnc2cc[nH]c12` = 2.26

For reference, reported log10(EC50) for `COc1cccc(OC)c1-n1c(NS(=O)(=O)[C@@H](C)[C@H](O)c2ncc(C)cn2)nnc1-c1cc(C)n[nH]1` stands at 0.32

The compound identified as `COc1ccc([C@@H](C)[C@H](C)S(=O)(=O)Nc2nnc(-c3ccn(C)n3)n2-c2c(OC)cccc2OC)nc1` registered its log10(EC50) at -0.48

log10(EC50) measured on `Cc1cnc([C@@H](C)[C@H](C)S(=O)(=O)Nc2nnc(-c3noc4ccccc34)n2C2CCOCC2)nc1` = 2.41

* * *

Kindly state EC50 for each of the entries shown.
# SYSTEM_UNDER_TEST: human APJ receptor (Homo sapiens (Human), UniProt P35414)
# ASSAY_INFO: biochemical
# RUN_CONDITIONS: [35S]GTPγS binding, CHO membranes expressing human APJ receptor; read-out: Activity hAPJ SPA EC50 IP
Entry rule: numbers only, all in nM.

According to the records, this molecule `COc1cncc(-c2nnc(NS(=O)(=O)[C@@H](C)[C@H](C)c3ncc(C)cn3)n2-c2c(OC)cccc2OC)n1` displays EC50 of 2.9

The molecule listed as `COc1cnc([C@@H](OC)[C@H](C)S(=O)(=O)Nc2nnc(-c3ccn(C)n3)n2-c2c(OC)ncnc2OC)cn1` shows EC50 equal to 2.6

For reference, reported EC50 for `COc1cccc(OC)c1-n1c(NS(=O)(=O)[C@@H](C)[C@H](C)c2ncc(Cl)cn2)nnc1-c1noc2c1CCCC2` stands at 0.33

Measured EC50, `CC(C)O[C@@H](c1ncc(Cl)cn1)[C@H](C)S(=O)(=O)Nc1nnc(-c2ccn(C)n2)n1C(C)C` : 27

# molecule `COc1cnc([C@@H](C)[C@H](C)S(=O)(=O)Nc2nnc(-c3ccn(C)n3)n2-c2c(OC)ncnc2OC)cn1` ; its EC50 = 1.2

COc1cccc(OC)c1-n1c(NS(=O)(=O)CC[C@@H](O)C2CCCC2)nnc1-c1nc(C)cs1 (mixture of isomers) has a reported EC50 of 5.3

EC50 recorded for this molecule, `CC(C)O[C@@H](c1ncc(Cl)cn1)[C@H](C)S(=O)(=O)Nc1nnc(-c2ccn(C)n2)n1C1CC1` , is 22
